Origin of the recorded values: patent US10654883B2

# Test system: COV434 cells
# Assay notes: NAD cell assay (NAD cycling method) in COV434 cells
# Type: cell-based, human
# Measurement conditions: 200 uM, 4 hr, NAD normalised to protein
Could you please report measured Fold increase compared to NaMN (NAD level) for the items listed next?
Answers are plain numbers.

Worked examples, 7 molecules total:
O=C([O-])c1ccc[n+]([C@@H]2O[C@H](COP(=O)([O-])[O-])[C@@H](O)[C@H]2O)c1.[K+].[K+]	1.3
O=C([O-])c1ccc[n+]([C@@H]2O[C@H](COP(=O)([O-])[O-])[C@@H](O)[C@H]2O)c1.[Na+].[Na+]	1.0
O=C(O)c1ccc[n+]([C@@H]2O[C@H](COP(=O)(O)O)[C@@H](O)[C@H]2O)c1 [NaMN, nicotinic acid mononucleotide]	1.0
O=C([O-])c1ccc[n+]([C@@H]2O[C@H](COP(=O)([O-])O)[C@@H](O)[C@H]2O)c1.[K+]	0.8
CC(=O)O[C@@H]1[C@H](OC(C)=O)[C@@H](COP(=O)([O-])O)O[C@H]1[n+]1cccc(C(=O)[O-])c1.[K+]	1.0
O=C([O-])c1ccc[n+]([C@@H]2O[C@H](COP(=O)([O-])[O-])[C@@H](O)[C@H]2O)c1.[K+].[Na+]	2.3
O=C([O-])c1ccc[n+]([C@@H]2O[C@H](COP(=O)([O-])O)[C@@H](O)[C@H]2O)c1.[Na+]	3.0

Pending molecule:
Entry CC(=O)O[C@@H]1[C@H](OC(C)=O)[C@@H](COP(=O)([O-])O)O[C@H]1[n+]1cccc(C(=O)[O-])c1.[Na+] , Fold increase compared to NaMN (NAD level) reported as 0.8
